# TEST_TARGET: recombinant human MAO-A (monoamine oxidase-A) (Homo sapiens, UniProt P21397)
# Construct: purchased Sigma-Aldrich
# Sequence (P21397 1-527): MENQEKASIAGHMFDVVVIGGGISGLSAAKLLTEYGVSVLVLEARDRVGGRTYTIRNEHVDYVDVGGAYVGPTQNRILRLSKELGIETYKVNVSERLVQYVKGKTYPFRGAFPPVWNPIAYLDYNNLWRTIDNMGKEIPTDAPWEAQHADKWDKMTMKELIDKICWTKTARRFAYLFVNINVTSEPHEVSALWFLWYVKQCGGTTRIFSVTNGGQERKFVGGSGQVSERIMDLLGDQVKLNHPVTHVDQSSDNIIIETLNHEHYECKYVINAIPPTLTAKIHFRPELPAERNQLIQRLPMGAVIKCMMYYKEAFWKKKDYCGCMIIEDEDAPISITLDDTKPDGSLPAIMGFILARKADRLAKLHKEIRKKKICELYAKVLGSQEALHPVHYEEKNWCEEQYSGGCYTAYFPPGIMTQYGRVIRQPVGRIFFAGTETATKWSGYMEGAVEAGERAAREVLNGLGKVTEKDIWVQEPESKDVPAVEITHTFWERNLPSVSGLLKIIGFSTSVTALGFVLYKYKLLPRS
# PROTOCOL_TEXT: Activity on recombinant human MAO-A, Amplex Red method, 0.5 mM tyramine substrate
# Format: biochemical
# PARTICULARS: 0.5 mM tyramine, read-out: Inhibitory Activity (IC50, nM) MAO-A
Structures can show the parent of a compound that is named as a salt.
MEASUREMENT_TYPE: IC50

Worked examples, 6 molecules total:
>  <MOLECULE>
NC/C(=C/F)Cn1ncn(-c2cccc(-c3ccc4c(c3)OCO4)c2)c1=O [Example 92, hydrochloride]

>  <REPORTED>
9.69 nM

$$$$
>  <MOLECULE>
CC(=O)N1CCN(c2ccc(-c3cccc(-n4cnn(C/C(=C/F)CN)c4=O)c3)cc2)CC1 [Example 72, hydrochloride]

>  <REPORTED>
4890 nM

$$$$
>  <MOLECULE>
CC(C)n1cc(-c2cccc(-n3cnn(C/C(=C/F)CN)c3=O)c2)ccc1=O [Example 90, hydrochloride]

>  <REPORTED>
> 100000 nM

$$$$
>  <MOLECULE>
Cc1cc(-n2cnn(C/C(=C\F)CN)c2=O)cnc1Br [Example 26, hydrochloride]

>  <REPORTED>
> 100000 nM

$$$$
>  <MOLECULE>
NC/C(=C\F)Cn1ncn(-c2ccc(-c3ccc(-c4nnc[nH]4)cc3)cc2F)c1=O

>  <REPORTED>
> 100000 nM

$$$$
>  <MOLECULE>
NC/C(=C\F)Cn1ncn(-c2cccc(-c3ccc(N4CCOCC4)c(Cl)c3)c2)c1=O [Example 76, hydrochloride]

>  <REPORTED>
> 100000 nM

$$$$

Quick one: IC50 for NC/C(=C\F)Cn1ncn(-c2cccc(-c3ccc4c(c3)OCO4)c2)c1=O [Example 93, hydrochloride] ?
> 10000 nM
